# PROTOCOL NOTES: Solubility of pesticides in solvents (pesticide powder added in 2% stepwise increments)
# Format: physicochemical
# MEASUREMENT CONTEXT: solvent Solvesso 150; concentration just prior to the one where the powder is not dissolved; no more than 2% lower than actual solubility
READOUT: Solubility in Comparative Solvent B (weight %)

> print(dat)
                                   molecule  readout.unit  numeric.result
1  CC(C)(C)C(=O)C(Oc1ccc(Cl)cc1)n1cncn1 (stereo not shown)      weight %              12
2  CCCCC(C#N)(Cn1cncn1)c1ccc(Cl)cc1 (stereo not shown)      weight %              23
3  COC(=O)N(OC)c1ccccc1COc1ccn(-c2ccc(Cl)cc2)n1      weight %              31
4  Cc1c(COC(=O)[C@@H]2[C@H](/C=C(\Cl)C(F)(F)F)C2(C)C)cccc1-c1ccccc1 (racemic)      weight %              44
5          CCOP(=S)(OCC)Oc1nc(Cl)c(Cl)cc1Cl      weight %              54
6  CC(C)(C)C(O)(CCc1ccc(Cl)cc1)Cn1cncn1 (stereo not shown)      weight %             2.0
7   CC(C)N1C(=O)N(c2ccccc2)CS/C1=N\C(C)(C)C      weight %              16

The values you see were collected from patent US20200253196A1.
